Read-out: Peroxisomal acyl-coenzyme A oxidase 1 (ACOX1) gene, ACOX1 (gene 51)
Experiment: LTEA_HepaRG_ACOX1: Life Technologies and Expression Analysis (LTEA) Assay for Peroxisomal acyl-coenzyme A oxidase 1 (ACOX1) gene using HepaRG (AID 2283467)
Details: mRNA level, 48 h; actives raise or lower the signal
Active and inactive are the calls of the source. How the source made its calls: active means hit-call score of the fitted dose curve at least 0.9, where 1 is the maximum; inactive means score below 0.9.
Hi there, use one of these labels in your reply, thanks! 1 (active), -1 (inactive)

{"columns": ["compound", "category_label"],
 "data": [
  ["C=CC(=O)NCNC(=O)C=C", -1]
]}

Look up the recorded call for CC(C)(O)C(=O)Nc1ccc([N+](=O)[O-])c(C(F)(F)F)c1 in this test.
-1

Look up the recorded call for CN(C)c1nc(=O)n(C2CCCCC2)c(=O)n1C in this test.
-1

Look up the recorded call for O=C(N[C@H]1CN2CCC1CC2)c1cc2ccoc2cn1 in this test.
-1

Look up the recorded call for ClC1=C(Cl)[C@]2(Cl)[C@@H]3[C@@H](Cl)[C@H]4O[C@H]4[C@@H]3C1(Cl)C2(Cl)Cl in this test.
-1

Look up the recorded call for CC(C)C(=O)OCC(C)(C)C(OC(=O)C(C)C)C(C)C (stereo not drawn) in this test.
-1

----------
Read-out: sulfotransferase 2A1 (SULT2A1), SULT2A1 (gene 6822)
Assay: LTEA_HepaRG_SULT2A1: Life Technologies and Expression Analysis (LTEA) Assay for sulfotransferase 2A1 (SULT2A1) using HepaRG (AID 2283531)
Details: mRNA level, 48 h; actives raise or lower the signal
The source made the active and inactive calls. How the source made its calls: active means hit-call score of the fitted dose curve at least 0.9, where 1 is the maximum; inactive means score below 0.9.
endpoint_name: AC50

{"columns": ["compound", "endpoint_name", "experimental_value"],
 "data": [
  ["Clc1ccc(C(Cl)(Cl)Cl)cc1", "AC50", "inactive"],
  ["CC(C)C(=O)OCC(C)(C)C(OC(=O)C(C)C)C(C)C (stereo unspecified)", "AC50", "inactive"],
  ["CC#Cc1cc(C)nc(Nc2ccccc2)n1", "AC50", "5.75 µM (active)"],
  ["CC1=C2C[C@H]3[C@@H](CC=C4C[C@@H](O)CC[C@@]43C)[C@@H]2CC[C@]12O[C@@H]1C[C@H](C)CN[C@H]1[C@H]2C", "AC50", "inactive"],
  ["Cc1cc(-c2ccc(N)c(C)c2)ccc1N", "AC50", "inactive"]
]}

Switching to the query record.
Consider the compound shown here: O=C(NC(=O)c1cc(F)c(F)cc1Cl)Nc1cc(F)ccc1N1CCC(C(=O)O)CC1 What is its recorded AC50?
inactive

----------
Experiment: APR_HepG2_MitoticArrest_24hr: Apredica 24-hour HepG2 Assay for Mitotic Arrest (AID 2282910)
Details: high-content imaging, actives raise or lower the signal
Active and inactive are the calls of the source. How the source made its calls: active means hit-call score of the fitted dose curve at least 0.9, where 1 is the maximum; inactive means score below 0.9.
Hi there, use one of these labels in your reply, thanks! yes (1) (active), no (0) (inactive)

Worked examples follow.
{"columns": ["molecule", "category_label"],
 "data": [
  ["CCC(C)(CC)c1cc(NC(=O)c2c(OC)cccc2OC)on1", "no (0)"],
  ["Cc1cc(O)ccc1Cl", "no (0)"],
  ["CCC(C)(c1ccc(O)cc1)c1ccc(O)cc1", "yes (1)"],
  ["Clc1ccc(C(c2ccccc2Cl)C(Cl)(Cl)Cl)cc1 (centres undefined)", "yes (1)"],
  ["O=C(O)C(F)(F)C(F)(F)C(F)(F)C(F)(F)C(F)(F)F", "no (0)"]
]}

Look up the recorded call for CC#Cc1cc(C)nc(Nc2ccccc2)n1 in this test.
no (0)

----------
Read-out: Monocyte Chemoattractant Protein-1 (MCP1), CCL2 (gene 6347)
Assay: BSK_SAg_MCP1: BioMAP Diversity Plus: SAg Assay for Monocyte Chemoattractant Protein-1 (MCP1) Biomarker Activity (AID 2283090)
Conditions: primary human HUVEC with PBMC; actives raise or lower the signal
Calls of active or inactive are those of the source. How the source made its calls: active means hit-call score of the fitted dose curve at least 0.9, where 1 is the maximum; inactive means score below 0.9.
Hi there, use one of these labels in your reply, thanks! active, inactive

{"columns": ["molecule", "category_label"],
 "data": [
  ["CCCCCCCCCc1ccc(O)cc1", "active"]
]}

Look up the recorded call for CC(C)C(=O)OCC(C)(C)C(OC(=O)C(C)C)C(C)C (configuration not stated) in this test.
inactive

Look up the recorded call for O=NN(c1ccccc1)c1ccccc1 in this test.
inactive

Look up the recorded call for Clc1ccc(Cl)cc1 in this test.
inactive

----------
Read-out: CYP3A5 (gene 1577)
Assay: LTEA_HepaRG_CYP3A5: Life Technologies and Expression Analysis (LTEA) Assay for CYP3A5 using HepaRG (AID 2283493)
Conditions: mRNA level, 48 h; actives raise or lower the signal
Procedure: LTEA_HepaRG is a cell based, multiplexed-readout assay that uses HepaRG, a human liver cell line, with measurements taken at 48 hours after chemical dosing on a 96-well plate.LTEA_HepaRG_CYP3A5 is one of 102 assay component(s) measured in the LTEA HepaRG cell culture assay. It is a marker of NR mediated metabolism.Data from the assay component LTEA_HepaRG_CYP3A5 was analyzed into 1 endpoint. […]
Active and inactive are the calls of the source. The calls were made as follows: active = hit-call score of the fitted dose curve at least 0.9, where 1 is the maximum; inactive = score below 0.9.
Hi there, use one of these labels in your reply, thanks! TRUE = active, FALSE = inactive

{"columns": ["compound", "category_label"],
 "data": [
  ["O=C(O)C(F)(F)C(F)(F)C(F)(F)C(F)(F)C(F)(F)C(F)(F)C(F)(F)C(F)(F)F", "FALSE"],
  ["C1CC2OC2CC1C1CO1 (centres undefined)", "FALSE"]
]}

Look up the recorded call for ClC1=C(Cl)[C@]2(Cl)[C@@H]3[C@@H]4C[C@@H]([C@H]5O[C@@H]45)[C@@H]3[C@@]1(Cl)C2(Cl)Cl in this test.
FALSE

Look up the recorded call for Clc1ccc(C(Cl)(Cl)Cl)cc1 in this test.
FALSE

Look up the recorded call for O=C(O)C(F)(F)C(F)(F)C(F)(F)C(F)(F)C(F)(F)C(F)(F)C(F)(F)C(F)(F)C(F)(F)F in this test.
TRUE

Look up the recorded call for CCC(C)(c1ccc(O)cc1)c1ccc(O)cc1 in this test.
FALSE

Look up the recorded call for ClC(Cl)=C(c1ccc(Cl)cc1)c1ccc(Cl)cc1 in this test.
FALSE

Look up the recorded call for Oc1ccc(C(c2ccc(O)cc2)(C(F)(F)F)C(F)(F)F)cc1 in this test.
TRUE

Look up the recorded call for Oc1ccc(Cl)cc1Cl in this test.
FALSE

----------
Test: CCTE_Simmons_CellTiterGLO_HEK293T: Viability Assessment in CCTE's Assays for Thyroperoxidase (TPO) Inhibition, Simmons Lab (AID 2283665)
Procedure: CCTE_Simmons_CellTiterGLO_HEK293T is a cell-based, single-readout assay that uses HEK293T, a human kidney cell line, with measurements taken at 24 hours after chemical dosing in a 384-well plate.CCTE_Simmons_CellTiterGLO_HEK293T is the assay component measured from the CCTE_Simmons_CellTiterGLO_HEK293T assay. It is designed to make measurements of ATP content, a form of viability reporter, as detected with bioluminescence signals by Luciferase-coupled ATP quantitation technology. […]
Inconclusive results are not listed. Active and inactive are the calls of the source. The calls were made as follows: active = hit-call score of the fitted dose curve at least 0.9, where 1 is the maximum; inconclusive = response in the unintended direction; inactive = score below 0.9.
Hi there, use one of these labels in your reply, thanks! active, inactive

{"columns": ["compound_structure_string", "category_label"],
 "data": [
  ["Cc1ccc(O)c(C)c1", "inactive"],
  ["CCCCCCCCCC[N+](C)(C)CCCCCCCCCC", "active"],
  ["COc1ccc(O)c(C(C)(C)C)c1", "active"],
  ["CC(c1ccc(O)cc1)(c1ccc(O)cc1)c1ccc(O)cc1", "active"]
]}

Look up the recorded call for C[C@]12CCC(=O)C=C1CC[C@@H]1[C@@H]2CC[C@]2(C)C(=O)CC[C@@H]12 in this test.
inactive

Look up the recorded call for CCCCCCCCCc1ccc(O)cc1 in this test.
active

Look up the recorded call for CCC(C)(c1ccc(O)cc1)c1ccc(O)cc1 in this test.
active

Look up the recorded call for CC(C)(c1ccccc1)c1ccc(O)cc1 in this test.
active

----------
Read-out: Interferon-gamma inducible Protein 10 (IP10), CXCL10 (gene 3627)
Test: BSK_BE3C_IP10: BioMAP Diversity Plus: BE3C Assay for Interferon-gamma inducible Protein 10 (IP10) Biomarker Activity (AID 2283034)
Details: primary human bronchial epithelial cells; actives raise or lower the signal
Active and inactive are the calls of the source. How the source made its calls: active means hit-call score of the fitted dose curve at least 0.9, where 1 is the maximum; inactive means score below 0.9.
Hi there, use one of these labels in your reply, thanks! 1 (active), 0 (inactive)

Worked examples follow.
{"columns": ["compound", "category_label"],
 "data": [
  ["CC(C)(c1ccccc1)c1ccc(O)cc1", 1],
  ["CCC(C)(CC)c1cc(NC(=O)c2c(OC)cccc2OC)on1", 0],
  ["ClC1=C(Cl)[C@]2(Cl)[C@@H]3[C@H]4C[C@H]([C@@H]5O[C@H]45)[C@@H]3[C@@]1(Cl)C2(Cl)Cl", 0],
  ["O=C(NC(=O)c1c(F)cccc1F)Nc1cc(Cl)c(OC(F)(F)C(F)F)c(Cl)c1", 0],
  ["CCOC(=O)C(O)(c1ccc(Cl)cc1)c1ccc(Cl)cc1", 1]
]}

Look up the recorded call for Cc1ccccc1[N+](=O)[O-] in this test.
0

Look up the recorded call for C[C@]12CCC(=O)C=C1CC[C@@H]1[C@@H]2CC[C@]2(C)C(=O)CC[C@@H]12 in this test.
0

Look up the recorded call for C[C@]12CCC(=O)C=C1CC[C@@H]1[C@@H]2CC[C@@]2(C)[C@H]1CC[C@]2(C)O in this test.
0

Look up the recorded call for Cc1cccc([N+](=O)[O-])c1 in this test.
0

Look up the recorded call for Sc1ccccc1 in this test.
0

Look up the recorded call for CCNc1nc(NC(C)C)nc(SC)n1 in this test.
0

Look up the recorded call for CCC(C)(c1ccc(O)cc1)c1ccc(O)cc1 in this test.
1
